test system: CAL-51; experiment: normalised viability (% of control), CellTiter-Blue; higher = more viable cells (about 100 = DMSO control); conditions: incubation time: 72 h
Reported normalised viability is given for each of the following compounds.

{"columns": ["COMPOUND", "EXPERIMENTAL_TARGET", "normalised viability / %"],
 "data": [
  ["CO[C@H]1C[C@@H]2CC[C@@H](C)[C@@](O)(O2)C(=O)C(=O)N2CCCC[C@H]2C(=O)O[C@H]([C@H](C)C[C@@H]2CC[C@@H](OP(C)(C)=O)[C@H](OC)C2)CC(=O)[C@H](C)/C=C(\\C)[C@@H](O)[C@@H](OC)C(=O)[C@H](C)C[C@H](C)/C=C/C=C/C=C/1C [Ridaforolimus] (30 nM)", "CAL-51", 37.9],
  ["Oc1ccc2c(c1)CC[C@H](c1ccccc1)[C@@H]2c1ccc(OCCN2CCCC2)cc1 [Lasofoxifene] (30 nM)", "CAL-51", 106],
  ["c1ccc2c(CCNc3ccc(Nc4ccncc4)cc3)c[nH]c2c1 [Serdemetan] (300 nM)", "CAL-51", 108],
  ["Cc1[nH]c2ccccc2c1CCNCc1ccc(/C=C/C(=O)NO)cc1 [Panobinostat] (30 nM)", "CAL-51", 68.8]
]}
